assay text: NCI Yeast Anticancer Drug Screen. Data for the mec2-1 strain (AID 157)
condition description: S. cerevisiae mec2-1 strain, at 50.0 µM (retest, dose inferred, filed as 5.0), stronger effect = higher value
Compounds without any hit were thinned out: in the full panel of roughly 79,000, 15% have a hit.
Entry flag: t if growth inhibition reaches 90%; f if it does not.

Reference set, count: 5
| molecule | category label |
| --- | --- |
| O=[N+]([O-])c1ccc2c3c(cccc13)CC2 | f |
| C/C(=N\Nc1ccccc1)C(CN(C)C)C(c1ccccc1)c1c(O)c2ccccc2oc1=O (stereo not drawn) | f |
| Cl[C](Cl)(Cl)[Hg][C](Cl)(Cl)Cl | t |
| CCCCCCCC(=O)[O][Hg][c]1ccccc1 | t |
| CC/C=C/c1cc2c(cc1O)CCC1C2CC[C@@]2(C)C1CC[C@@H]2O (stereo partly drawn) | t |

Does growth inhibition meet or surpass 90% for S=c1sc(-c2ccccc2)c[se]1 ? f

Threshold query (growth inhibition >= 90%) on CC(=O)[O][Sn]([CH3])([CH3])[c]1ccccc1 f

Is reported growth inhibition greater than or equal to 90% here: CCCCCc1cc(O)c(CCCC)c(O)c1 f

# bool: growth inhibition of COC1CCCC2OC3(OC)C(OC)CCCC3OC12OC (stereo not drawn) >= 90% f

For this molecule, is measured growth inhibition 90% or higher? c1ccc([As+](c2ccccc2)(c2ccccc2)c2cccc3ccccc23)cc1 t

Test whether the molecule O=C(O)C(F)(F)C(F)(F)C(=O)O records growth inhibition of 90% or higher. f

In plain terms: is recorded growth inhibition at least 90% for CC1(OO)CCC2CC1C2(C)C (stereo not drawn) ? t

* * *

assay text: NCI Yeast Anticancer Drug Screen. Data for the bub3 strain (AID 167)
condition description: S. cerevisiae bub3 mutant strain, at 50.0 µM (retest, dose inferred, filed as 5.0)
Protocol: Growth inhibition of yeast strains with defined genetic alterations is measured as a screen for potential anti-cancer activity. Selected strains with alterations in DNA damage repair or cell cycle control were exposed to compounds and growth inhibition was measured relative to vehicle treated controls. The strain used in this assay is bub3
Compounds without any hit were thinned out: in the full panel of roughly 79,000, 15% have a hit. Activity calls are given as the source filed them. No stated cut-off is given here; in the data, active means growth inhibition above about 70%; inactive means the rest.
Valid outcomes are listed here; reply with one: t for active, f for inactive

Consider the worked cases shown below.
| molecule | category label |
| --- | --- |
| COC1OCCC[CH]1[Hg][Cl] (stereo unspecified) | t |
| C[N+](C)(C)CC1CCCC(C[N+](C)(C)C)C1O (stereo unspecified) | t |
| O=[N+]([O-])/C=C\c1ccccc1 | t |
| CC(=O)[O][Sn]([CH3])([CH3])[c]1ccccc1 | t |
| CC(=O)OCC12CCC(C)=CC1OC1C(O)C(OC(C)=O)C2(C)C12CO2 (stereo unspecified) | t |
| O=[N+]([O-])c1ccc(N2CCOCC2)c2c1no[n+]2[O-] | t |
| Cc1ccc2c(C)c3ccc4ccccc4c3c[n+]2c1 | t |
| CCCC(C)c1ccccc1OP(=S)(S)Oc1ccccc1C(C)CCC (stereo unspecified) | f |
| CC(=O)OC1=CC2=CC[C@H]3[C@@H]4CCC(=O)[C@@]4(C)CC(=O)[C@]3(S)[C@@]2(C)CC1 | f |
| CC(=O)NC1C(O[C@H]2CC[C@@]3(C)C(CC[C@]4(C)C3CC=C3C5CC(C)(C)CC[C@]5(C(=O)O)CCC34C)C2(C)C)OC(CO)C(O)C1O (stereo partly specified) | t |

Now for a further molecule.
Hi, sorry to bother you, what did the test record for CC(=O)[O][Hg][c]1c(C)c(C)cc(C)c1C ? t

* * *

Here, each record is paired with measured growth inhibition data.
assay text: NCI Yeast Anticancer Drug Screen. Data for the bub3 strain (AID 167)
condition description: S. cerevisiae bub3 mutant strain, at 50.0 µM, stronger effect = higher value
About 79,000 compounds went through this panel and 15% of them were active in at least one assay; those are over-represented in the sample as a whole.
Quick note: give the figure in %, leave out the unit.

Below, 5 compounds whose answers are already recorded.
| compound | growth inhibition [%] |
| --- | --- |
| N#Cc1ccc(CCl)cc1 | 2.95 |
| CN1CCN(c2ccc3nc(-c4ccc5nc(CCCc6ccc(N(CCCl)CCCl)cc6)[nH]c5c4)[nH]c3c2)CC1 | 91.7 |
| COc1ccc(C2=CC3=CCC4C(CCC5(C)C(O)CCC45)C3(C)CC2)s1 (stereo unspecified) | -0.1 |
| COc1ccccc1/C=C/[N+](=O)[O-] | 99.2 |
| CSCC(NP1(=O)SC(NN=C2CCCCC2)=NC1(C)C)C(=O)O (stereo unspecified) | -0.15 |

Proceeding to the next compound to report its growth inhibition.
Per the record, CC(O)C[As](=O)(O)c1ccccc1Cl (stereo unspecified) has growth inhibition of 14.4

* * *

Overview of recorded growth inhibition for various compounds
assay text: NCI Yeast Anticancer Drug Screen. Data for the sgs1 mgt1 strain (AID 161);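 further: 0% = growth of cultures given vehicle only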
condition description: S. cerevisiae sgs1 mgt1 strain, at 50.0 µM (retest, dose inferred, filed as 5.0), stronger effect = higher value
This is part of a sample that, as a whole, favours compounds with a hit. Of some 79,000 tested, about 15% had one in any assay.
Kindly answer with a numeric value in %, unit omitted.

| compound | growth inhibition / % |
| --- | --- |
| Nc1ccc(Br)cc1C(=O)c1ccccc1 | 98 |

get_value(item= CC[C@@]1(O)C(=O)OCc2c1cc1n(c2=O)Cc2cc3c(OC)cccc3nc2-1 , readout=growth inhibition) returns 88

Just so you know, measured growth inhibition for COc1ccc(/C=C/[N+](=O)[O-])cc1 came out at 100

For reference, reported growth inhibition for C[C@]12CCC(O)CC1=CC[C@@H]1[C@@H]2CC[C@]2(C)C(=O)[C@H](n3ccnc3)C[C@@H]12 (stereo not given in full) stands at 62

Consider CC(=O)NC1=C(N(CCCl)CCCl)C(=O)c2ccccc2C1=O . Its measured growth inhibition is 99

Reported growth inhibition ( COc1ccc(/C=C\[N+](=O)[O-])cc1OC ) = 99

* * *

assay text: NCI Yeast Anticancer Drug Screen. Data for the cln2 rad14 strain (AID 165);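 further: 0% = growth equal to vehicle treated cultures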
condition description: S. cerevisiae cln2 rad14 strain, at 50.0 µM, stronger effect = higher value
The panel holds about 79,000 compounds, 15% with a hit somewhere; the sample as a whole holds those more often.
readout kind: growth inhibition (%)
Numeric answer only, unit % assumed.

| compound | value units | growth inhibition |
| --- | --- | --- |
| COc1cc(C(CC(=O)N(CCCl)CCCl)c2ccc3c(c2)OCO3)cc(OC)c1OC (stereo unspecified) | % | 25.5 |
| CCC(=O)c1ccc(C)cc1 | % | -16.7 |
| COC1CCC(OC2CC(C3(C)CCC4(CC(O)C(C)C(C(C)/C=C(\C)C(=O)C(C)CC(C)C(=O)O)O4)O3)OC3(OC(C4OC(O)(CO)C(C)CC4C)CC3C)C2C)OC1C (stereo unspecified) | % | 68.6 |
| CCCCC(Br)C(=O)OCC (stereo unspecified) | % | -11.6 |
| COc1cc(OC)c(/C=C(\C)[N+](=O)[O-])cc1Br | % | 66.2 |
| CCn1nnnc1N | % | 16.4 |
| COC(=O)C1C(=O)CC2N(C)C1C(C)(C)C2(C)C (stereo unspecified) | % | 4.8 |
| CC(N)C(O)c1ccc(O)cc1 (stereo unspecified) | % | -4.95 |
| O=C(O)C(O)(c1ccc(-c2ccccc2)cc1)c1ccc(-c2ccccc2)cc1 | % | 95 |
| CC[C@@H]1C(=O)OC[C@@H]1Cc1cncn1C | % | 26 |

Please turn your attention to the following entry.
Query CC12C(=O)C(C)(C(c3ccccc3)=C1c1ccccc1)C1(C#N)NC21C#N (stereo unspecified) yields growth inhibition of 18.2

* * *

assay text: NCI Yeast Anticancer Drug Screen. Data for the mlh1 rad18 strain (AID 175)
condition description: S. cerevisiae mlh1 rad18 strain growth inhibition; at 50.0 µM; stronger effect = higher value
About 79,000 compounds went through this panel and 15% of them were active in at least one assay; those are over-represented in the sample as a whole.
Reported growth inhibition values for the following compounds.
Give just the number in %; leave the unit off.

Worked cases, answers included:
| compound | growth inhibition / % |
| --- | --- |
| CC[C@H]1CN2CCc3c([nH]c4ccccc34)[C@@H]2C[C@@H]1/C(=C\OC)C(=O)OC | 0.65 |
| CCNC(Cc1ccccc1)c1ccco1 (stereo unspecified) | 12.5 |
| OCC(O)C(O)C(O)C1C[O][Sb][O]1 (stereo unspecified) | 8.2 |
| CCCCCCCCCC[C@@H](O)[C@@H]1CC[C@@H]([C@@H]2CC[C@@H]([C@@H](O)CCCCCCCCCC[C@H](O)CC3=CC(C)OC3=O)O2)O1 (stereo partly specified) | -21.9 |
| CC1=CC(=O)c2c(O)cccc2C1=O | 89 |
| Clc1ccc(Br)cc1 | -1.35 |
| O=P(Oc1ccccc1)(Oc1ccccc1)N(CCCl)CCCl | -37.6 |
| CC(=O)Nc1nccs1.CC(=O)Nc1nccs1.[Cl][Pt][Cl] | 5.1 |
| O=[N+]([O-])O.[Tl] | -18.4 |
| O=[N+]([O-])/C=C/c1ccc(Cl)cc1 | 99.5 |

Please find the next compound below.
Record [CH3][Sb]([CH3])([CH3])([O]C(=O)C(Cl)Cl)[O]C(=O)C(Cl)Cl . Reported growth inhibition: 2.9
